All figures here come from paper PMC7893122.

Method Summary: Pharmacokinetics in Sprague–Dawley rats
Assay type: in vivo
Condition Set: Sprague-Dawley, rat, plasma, iv, 1 mg/kg
Value Type: AUC(0-t) (ng·h/mL)

1 = Cn1cc(-c2cc(N3CCCS3(=O)=O)ccc2Oc2ccc(F)cc2F)c2c(F)c[nH]c2c1=O
2 = CCNC(=O)c1cc2c(-c3cc(N4CCCCS4(=O)=O)ccc3Oc3ccc(F)cc3F)cn(C)c(=O)c2[nH]1
For the two items 1 and 2 , which reports the higher AUC(0-t) value? Indicate your choice by writing its label.
1

a = CCS(=O)(=O)Nc1ccc(Oc2ccc(F)cc2F)c(-c2cn(C)c(=O)c3[nH]ccc23)c1 [Compound 2, reference compound]
b = CCNC(=O)c1cc2c(-c3cc(N4CCCS4(=O)=O)ccc3Oc3ccc(F)cc3F)cn(C)c(=O)c2[nH]1
For the two items a and b , which reports the higher AUC(0-t) value? Indicate your choice by writing its label.
a

---

Target Or Test System: BRD4 (BD1) (Homo sapiens, UniProt O60885)
Method Summary: Homogeneous time-resolved fluorescence binding assay, BRD4
Condition Set: IC50 BRD4 (BD1), mean ± SD from three separate experiments
pIC50: −log10 of the molar value.
Value Type: pIC50

Some solved cases for reference:
GET /values?readout=pIC50&item= Cn1cc(-c2cc(N3CCCCS3(=O)=O)ccc2Oc2ccc(F)cc2F)c2cc(C(N)=O)[nH]c2c1=O [Compound 29]
10.05

GET /values?readout=pIC50&item= CN(CCO)CCN1CCCN(c2ccc(Oc3ccc(F)cc3F)c(-c3cn(C)c(=O)c4[nH]ccc34)c2)S1(=O)=O [Compound 20]
9.00

GET /values?readout=pIC50&item= Cn1cc(-c2cc(N3CCCCS3(=O)=O)ccc2Oc2ccc(F)cc2F)c2c(F)c[nH]c2c1=O [Compound 25]
8.82

GET /values?readout=pIC50&item= CCS(=O)(=O)Nc1ccc(Oc2ccc(F)cc2F)c(-c2cc(NS(=O)(=O)CC)c(=O)n(C)c2)c1 [Compound 8]
7.37

GET /values?readout=pIC50&item= Cn1cc(-c2cc(N3CCCC(CO)S3(=O)=O)ccc2Oc2ccc(F)cc2F)c2cc[nH]c2c1=O (centres unmarked) [Compound 13]
9.22

GET /values?readout=pIC50&item= CN1C(=O)C(C)(C)Oc2c(-c3cn(C)c(=O)c4[nH]ccc34)cc(S(C)(=O)=O)cc21 [INCB-057643, reference compound]
7.94

GET /values?readout=pIC50&item= CCNC(=O)c1cc2c(-c3cc(N4CCCS4(=O)=O)ccc3Oc3ccc(F)cc3F)cn(C)c(=O)c2[nH]1 [Compound 30]
9.22

I = Cn1cc(-c2cc(N3CCCS3(=O)=O)ccc2Oc2ccc(F)cc2F)c2c(F)c[nH]c2c1=O [Compound 24]
II = CCOC(=O)Nc1cc(-c2cc(NS(=O)(=O)CC)ccc2Oc2ccc(F)cc2F)cn(C)c1=O [Compound 5]
III = CN(C)CCN1CCCN(c2ccc(Oc3ccc(F)cc3F)c(-c3cn(C)c(=O)c4[nH]ccc34)c2)S1(=O)=O [Compound 18]
IV = Cn1cc(-c2cc(N3CCCS3(=O)=O)ccc2Oc2ccc3occc3c2)c2cc[nH]c2c1=O [Compound 33]
V = CCNC(=O)c1cc2c(-c3cc(N4CCCCS4(=O)=O)ccc3Oc3ccc(F)cc3F)cn(C)c(=O)c2[nH]1 [Compound 31]
Ordering: ascending pIC50. Sort the labels as requested; that list is your answer.
II, IV, III, I, V
(II: 7.56, IV: 8.55, III: 8.82, I: 9.30, V: 9.89)
